- TARGET: UniProtKB Q9NYK1
- Sequence (Q9NYK1 27-1049): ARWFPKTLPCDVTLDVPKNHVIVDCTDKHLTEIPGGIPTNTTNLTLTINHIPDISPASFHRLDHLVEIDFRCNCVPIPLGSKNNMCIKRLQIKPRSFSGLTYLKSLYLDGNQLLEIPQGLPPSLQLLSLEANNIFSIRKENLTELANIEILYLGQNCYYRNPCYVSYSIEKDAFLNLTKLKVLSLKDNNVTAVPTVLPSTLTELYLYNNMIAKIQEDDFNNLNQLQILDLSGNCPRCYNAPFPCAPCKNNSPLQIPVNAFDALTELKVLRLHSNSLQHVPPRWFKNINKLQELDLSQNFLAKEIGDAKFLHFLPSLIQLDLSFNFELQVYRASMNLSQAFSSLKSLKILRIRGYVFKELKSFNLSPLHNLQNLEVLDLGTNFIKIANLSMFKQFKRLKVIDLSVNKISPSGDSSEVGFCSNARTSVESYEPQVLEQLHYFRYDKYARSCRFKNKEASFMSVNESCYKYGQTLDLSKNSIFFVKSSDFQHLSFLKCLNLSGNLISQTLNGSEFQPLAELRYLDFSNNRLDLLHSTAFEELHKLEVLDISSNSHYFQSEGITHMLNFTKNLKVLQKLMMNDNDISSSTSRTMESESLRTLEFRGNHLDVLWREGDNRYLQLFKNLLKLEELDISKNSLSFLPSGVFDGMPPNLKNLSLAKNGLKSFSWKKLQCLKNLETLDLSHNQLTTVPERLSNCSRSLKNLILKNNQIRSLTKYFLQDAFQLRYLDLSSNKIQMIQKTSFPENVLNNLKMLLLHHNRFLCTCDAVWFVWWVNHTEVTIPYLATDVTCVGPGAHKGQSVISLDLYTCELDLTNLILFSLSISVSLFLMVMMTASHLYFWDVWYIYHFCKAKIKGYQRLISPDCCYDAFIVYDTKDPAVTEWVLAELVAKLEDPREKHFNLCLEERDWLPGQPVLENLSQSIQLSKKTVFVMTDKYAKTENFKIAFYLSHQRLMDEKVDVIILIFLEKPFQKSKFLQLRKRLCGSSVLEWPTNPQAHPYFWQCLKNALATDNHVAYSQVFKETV
- ASSAY PROTOCOL: HEK TLR7 Cell Assay
- ASSAY SETUP: TLR7/NFKb HEK cells, R848 agonist 10 uM final, Steady-Glo readout
- Description: Example 24: HEK TLR7 Cell Assay Into 384 CulturePlates (Corning 3707) was placed 5000 c/w of TLR7/NFKb HEK cells in 30 uL DMEM without Phenol red (gibco #31053) and 10% FCS-HI, 2 mM L-Glutamine, 1% Pen/Strept. The cells are incubated for 24 h at 37 degrees Celsius, and 10% carbon dioxide. […] Let the assay plate sit for 30 min at room temperature and then read plate on EnVision.
IC50 values, listed per item

Sample records with IC50:
>  <MOLECULE>
C[C@@H]1CN(c2ccc(C#N)c3nccnc23)C[C@@H]1NC(=O)CC1CCN(C)CC1(F)F (single isomer, unassigned) [Compound 11]

>  <IC50>
< 1000 nM

$$$$
>  <MOLECULE>
Cc1ccc(N2C[C@@H](C)[C@@H](NC(=O)CC3CCN(C)CC3)C2)c2cccnc12

>  <IC50>
< 1000 nM

$$$$
>  <MOLECULE>
C[C@@H]1CN(c2ccc(C(F)(F)F)c3ncccc23)C[C@@H]1NC(=O)CC1(C)CCN(C)CC1

>  <IC50>
< 1000 nM

$$$$
>  <MOLECULE>
C[C@@H]1CN(c2ccc(C(F)(F)F)c3ncccc23)C[C@@H]1NC(=O)CC1CCN(C)C1 (single isomer, unassigned) [Compound 22]

>  <IC50>
< 1000 nM

$$$$
>  <MOLECULE>
C[C@@H]1CN(c2ccc(C(F)(F)F)c3ncccc23)C[C@@H]1NC(=O)C(O)C1CC1 (single isomer, unassigned) [Compound 30]

>  <IC50>
1000 to 10000 nM

$$$$

The molecule listed as C[C@@H]1CN(c2ccc(C(F)(F)F)c3ncccc23)C[C@@H]1NC(=O)CC1CCN(C)CC1(F)F (single isomer, unassigned) [Compound 27] has a reported IC50 of 1000 to 10000 nM

The molecule listed as "C[C@@H]1CN(c2ccc(C#N)c3nccnc23)C[C@@H]1NC(=O)CC1(C)CCN(C)CC1" has a reported IC50 of < 1000 nM
